Kindly find below IC50 information for Serine/threonine-protein kinase ATR (Homo sapiens, UniProt Q13535) taken from the literature.
Entries whose IC50 is below 40 nM take true (1); entries at or above 40 nM take false (0).

Q: For this compound, is IC50 lower than 40 nM? COc1ccc(C(=O)N2Cc3c(N4CCOC[C@H]4C)nc(-c4cccc5[nH]ccc45)nc3C2(C)C)cc1
Result: true (1)

Q: For this compound, is IC50 lower than 40 nM? CN(C)CCCOc1ccc(-c2ccc3ncc4c(c3c2)n([C@@H]2CCCOC2)c(=O)n4C)cn1
Result: false (0)

Q: For this compound, is IC50 lower than 40 nM? c1cc(-c2cc3nccn3c(N3CCOCC3)n2)c2cc[nH]c2c1
Result: false (0)

Q: For this compound, is IC50 lower than 40 nM? C[C@@H]1COCCN1c1nc(-n2cnc3ccccc32)nc2c(S(C)(=O)=O)csc12
Result: true (1)

Q: For this compound, is IC50 lower than 40 nM? CCC(=O)N1CCc2c(nc(-c3cccc4[nH]ccc34)nc2N2CCOC[C@H]2C)C1
Result: true (1)

Q: For this compound, is IC50 lower than 40 nM? C[C@@H]1COCCN1c1nc(-c2cccc3c2CC(=O)N3)nc2c(S(C)(=O)=O)csc12
Result: false (0)

Q: For this compound, is IC50 lower than 40 nM? COCc1ccc(-c2ccc3ncc4c(c3c2)n(C2CCOCC2)c(=O)n4C)cn1
Result: false (0)

Q: For this compound, is IC50 lower than 40 nM? C[C@H](c1ccccc1)n1nnc2cnc3ccc(-c4ccc(OCCCN(C)C)nc4)cc3c21
Result: false (0)

Q: For this compound, is IC50 lower than 40 nM? CNc1nc2ccccc2n1-c1nc(N2CCOC[C@H]2C)c2scc(SC)c2n1
Result: true (1)

Q: For this compound, is IC50 lower than 40 nM? C[C@@H]1COCCN1c1nc(-c2ccnc3[nH]ccc23)nc2c(C(N)=O)csc12
Result: true (1)

Q: For this compound, is IC50 lower than 40 nM? CS(=O)(=O)Cn1cnc2c(N3C4CCC3COC4)nc(-c3cnc(N)nc3)cc21
Result: false (0)

Q: For this compound, is IC50 lower than 40 nM? C[C@@H]1COCCN1c1nc(-c2cccc3[nH]ccc23)nc2c1CCN(C(=O)C1CC1)C2(C)C
Result: true (1)

Q: For this compound, is IC50 lower than 40 nM? COCc1ccc(-c2cc3c(cc2F)ncc2c3n([C@H]3C[C@@H](O)C3)c(=O)n2C)cn1
Result: false (0)

Q: For this compound, is IC50 lower than 40 nM? COC(=O)N1CCc2c(N3CCOC[C@H]3C)nc(-c3cccc4[nH]ccc34)nc2C1(C)C
Result: true (1)

Q: For this compound, is IC50 lower than 40 nM? C[C@@H]1COCCN1c1nc(-c2cc(F)cc3[nH]ccc23)nc2c(S(C)(=O)=O)csc12
Result: true (1)

Q: For this compound, is IC50 lower than 40 nM? C=C(C)c1csc2c(N3CCOC[C@H]3C)nc(-c3ccnc4[nH]ccc34)nc12
Result: false (0)

Q: For this compound, is IC50 lower than 40 nM? c1cc(-c2cc3c(ncn3CC3CC3)c(N3CCOCC3)n2)c2cc[nH]c2c1
Result: true (1)
